Tested on: HeLa
assay details: Cytotoxicity against human HeLa cells after 24 hrs by WST-1 assay
Format: functional, cell-based
pIC50: −log10 of the molar value.
reported property: pIC50

query: Would you kindly share the measured pIC50 for Cc1sc2c(c1C)C(c1ccc(Cl)cc1)=N[C@@H](CC(=O)OC(C)(C)C)c1nnc(C)n1-2 ?
result: < 4.00

query: Would you kindly share the measured pIC50 for CC(=O)Oc1cc(-c2c(C)noc2C)cc(C(O)c2ccccc2)c1 (racemic) ?
result: < 4.00

query: Would you kindly share the measured pIC50 for Cc1noc(C)c1-c1cc(O)cc(C(O)c2ccccc2)c1 (racemic) ?
result: < 4.00

* * *

measurement target: CREB-binding protein (Homo sapiens)
Sequence (Q92793 whole entry): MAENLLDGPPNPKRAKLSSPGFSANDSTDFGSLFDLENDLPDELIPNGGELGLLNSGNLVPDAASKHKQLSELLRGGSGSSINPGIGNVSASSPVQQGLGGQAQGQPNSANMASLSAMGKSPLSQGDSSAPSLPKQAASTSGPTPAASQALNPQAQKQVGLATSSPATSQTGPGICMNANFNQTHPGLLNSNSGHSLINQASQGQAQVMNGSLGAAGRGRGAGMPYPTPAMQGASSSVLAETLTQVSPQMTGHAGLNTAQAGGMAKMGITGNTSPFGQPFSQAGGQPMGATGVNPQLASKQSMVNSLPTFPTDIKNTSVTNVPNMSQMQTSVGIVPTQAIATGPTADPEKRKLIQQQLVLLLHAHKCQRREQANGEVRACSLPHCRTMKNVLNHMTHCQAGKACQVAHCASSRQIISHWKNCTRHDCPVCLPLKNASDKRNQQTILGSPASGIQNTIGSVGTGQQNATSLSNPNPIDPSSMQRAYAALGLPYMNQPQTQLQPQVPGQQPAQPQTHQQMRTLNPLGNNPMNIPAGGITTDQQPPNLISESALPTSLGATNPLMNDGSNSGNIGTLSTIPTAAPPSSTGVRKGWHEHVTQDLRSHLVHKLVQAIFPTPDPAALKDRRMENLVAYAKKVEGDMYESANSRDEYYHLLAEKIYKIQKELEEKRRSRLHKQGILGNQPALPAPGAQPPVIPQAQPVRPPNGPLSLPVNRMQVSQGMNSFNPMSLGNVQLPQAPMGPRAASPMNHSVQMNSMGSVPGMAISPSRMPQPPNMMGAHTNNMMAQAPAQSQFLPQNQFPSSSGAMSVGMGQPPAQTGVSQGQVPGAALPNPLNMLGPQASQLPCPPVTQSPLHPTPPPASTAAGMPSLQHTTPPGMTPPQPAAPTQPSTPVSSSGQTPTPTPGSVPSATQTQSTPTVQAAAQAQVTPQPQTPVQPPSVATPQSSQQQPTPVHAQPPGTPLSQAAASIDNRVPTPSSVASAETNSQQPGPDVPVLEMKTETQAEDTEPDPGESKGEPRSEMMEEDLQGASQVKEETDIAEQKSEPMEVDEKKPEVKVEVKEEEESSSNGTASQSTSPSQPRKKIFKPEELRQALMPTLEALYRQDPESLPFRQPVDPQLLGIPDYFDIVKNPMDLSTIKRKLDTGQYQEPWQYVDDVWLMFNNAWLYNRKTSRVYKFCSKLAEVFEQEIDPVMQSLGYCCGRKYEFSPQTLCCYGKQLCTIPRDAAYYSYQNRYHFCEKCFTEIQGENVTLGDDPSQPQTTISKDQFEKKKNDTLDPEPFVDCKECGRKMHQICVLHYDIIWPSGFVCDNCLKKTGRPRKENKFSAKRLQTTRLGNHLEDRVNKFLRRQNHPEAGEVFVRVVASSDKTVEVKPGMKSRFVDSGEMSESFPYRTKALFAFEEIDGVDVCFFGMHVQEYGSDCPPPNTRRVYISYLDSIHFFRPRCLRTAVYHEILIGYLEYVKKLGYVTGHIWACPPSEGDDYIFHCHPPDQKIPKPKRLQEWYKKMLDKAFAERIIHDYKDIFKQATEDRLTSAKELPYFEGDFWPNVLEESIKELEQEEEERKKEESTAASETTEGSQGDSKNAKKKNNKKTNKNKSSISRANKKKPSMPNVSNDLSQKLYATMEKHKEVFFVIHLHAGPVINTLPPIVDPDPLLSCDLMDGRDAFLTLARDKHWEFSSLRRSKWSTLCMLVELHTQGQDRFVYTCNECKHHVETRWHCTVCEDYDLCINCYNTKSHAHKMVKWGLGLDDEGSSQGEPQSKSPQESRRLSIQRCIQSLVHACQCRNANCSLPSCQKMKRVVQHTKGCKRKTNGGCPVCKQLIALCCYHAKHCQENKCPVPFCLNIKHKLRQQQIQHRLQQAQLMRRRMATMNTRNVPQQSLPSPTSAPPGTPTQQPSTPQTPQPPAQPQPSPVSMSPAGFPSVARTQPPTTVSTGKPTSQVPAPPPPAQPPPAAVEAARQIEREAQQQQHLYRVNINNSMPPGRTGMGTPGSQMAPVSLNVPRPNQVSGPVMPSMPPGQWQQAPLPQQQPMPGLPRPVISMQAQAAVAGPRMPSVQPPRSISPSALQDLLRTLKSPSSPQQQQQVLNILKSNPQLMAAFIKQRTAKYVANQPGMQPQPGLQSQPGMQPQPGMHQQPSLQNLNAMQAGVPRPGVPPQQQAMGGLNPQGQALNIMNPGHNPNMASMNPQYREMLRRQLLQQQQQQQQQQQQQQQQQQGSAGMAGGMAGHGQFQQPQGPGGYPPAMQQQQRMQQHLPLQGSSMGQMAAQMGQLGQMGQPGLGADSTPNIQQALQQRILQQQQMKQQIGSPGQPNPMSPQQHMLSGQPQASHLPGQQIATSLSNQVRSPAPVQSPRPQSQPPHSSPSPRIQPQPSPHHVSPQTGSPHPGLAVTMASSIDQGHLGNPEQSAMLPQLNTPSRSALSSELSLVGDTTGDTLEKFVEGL
assay details: Binding affinity to CREBBP bromodomain (unknown origin) using H3K56Ac peptide by amplified luminescent proximity homogeneous assay
Rule: IC50 below 3000 nM gives criterion met. Equal to or above 3000 nM gives criterion not met.

query: Decide: IC50 of CCOc1cc(-c2c(C)noc2C)cc(C(O)c2ccccc2)c1 (stereo not given) strictly below 3000 nM?
result: criterion not met

query: Decide: IC50 of CC(=O)Oc1cc(-c2c(C)noc2C)cc(C(O)c2ccccc2)c1 (racemic) strictly below 3000 nM?
result: criterion met

query: Decide: IC50 of COc1cc(-c2c(C)noc2C)cc(C(O)c2ccccc2)c1 (stereo not given) strictly below 3000 nM?
result: criterion not met

query: Decide: IC50 of Cc1noc(C)c1-c1cc(OCCO)cc(C(O)c2ccccc2)c1 (stereo not given) strictly below 3000 nM?
result: criterion met

query: Decide: IC50 of COCCOc1cc(-c2c(C)noc2C)cc(C(O)c2ccccc2)c1 (stereo not given) strictly below 3000 nM?
result: criterion met

* * *

measurement target: Bromodomain-containing protein 4 (Homo sapiens, UniProt O60885)
assay details: Binding affinity to human BRD4 bromodomain 1 using H4Ac4 peptide by amplified luminescent proximity homogeneous assay
Rule: IC50 below 1000 nM gives Criterion met. Equal to or above 1000 nM gives Criterion not met.

query: Decide: IC50 of CCOc1cc(-c2c(C)noc2C)cc(C(O)c2ccccc2)c1 (stereo not given) strictly below 1000 nM?
result: Criterion met

query: Decide: IC50 of COc1cc(-c2c(C)noc2C)cc(C(O)c2ccccc2)c1 (stereo not given) strictly below 1000 nM?
result: Criterion not met

query: Decide: IC50 of COCCOc1cc(-c2c(C)noc2C)cc(C(O)c2ccccc2)c1 (stereo not given) strictly below 1000 nM?
result: Criterion not met

query: Decide: IC50 of Cc1noc(C)c1-c1cc(O)cc(C(=O)c2ccccc2)c1 strictly below 1000 nM?
result: Criterion met

query: Decide: IC50 of Cc1noc(C)c1-c1cc(OCCO)cc(C(O)c2ccccc2)c1 (stereo not given) strictly below 1000 nM?
result: Criterion not met

* * *

Test system: MV4-11
assay details: Cytotoxicity against human MV4-11 cells after 72 hrs by MTS assay
Assay type: functional, cell-based
experimental setup: MV4-11, 72 h
reported property: IC50 (nM)
Give the value, in units of nM, as a plain number.

query: Would you kindly share the measured IC50 for Cc1sc2c(c1C)C(c1ccc(Cl)cc1)=N[C@@H](CC(=O)OC(C)(C)C)c1nnc(C)n1-2 ?
result: 242
